Source listed as paper PMC5137443.

tgt: POT1;TPP1-L23 mutant (Homo sapiens;Homo sapiens, UniProt Q9NUX5;Q96AP0 1-634;3-248, |D62A;G63A;T64A;H65A)
Sequence (Q9NUX5 whole entry, stated change not applied, chain 1 of 2): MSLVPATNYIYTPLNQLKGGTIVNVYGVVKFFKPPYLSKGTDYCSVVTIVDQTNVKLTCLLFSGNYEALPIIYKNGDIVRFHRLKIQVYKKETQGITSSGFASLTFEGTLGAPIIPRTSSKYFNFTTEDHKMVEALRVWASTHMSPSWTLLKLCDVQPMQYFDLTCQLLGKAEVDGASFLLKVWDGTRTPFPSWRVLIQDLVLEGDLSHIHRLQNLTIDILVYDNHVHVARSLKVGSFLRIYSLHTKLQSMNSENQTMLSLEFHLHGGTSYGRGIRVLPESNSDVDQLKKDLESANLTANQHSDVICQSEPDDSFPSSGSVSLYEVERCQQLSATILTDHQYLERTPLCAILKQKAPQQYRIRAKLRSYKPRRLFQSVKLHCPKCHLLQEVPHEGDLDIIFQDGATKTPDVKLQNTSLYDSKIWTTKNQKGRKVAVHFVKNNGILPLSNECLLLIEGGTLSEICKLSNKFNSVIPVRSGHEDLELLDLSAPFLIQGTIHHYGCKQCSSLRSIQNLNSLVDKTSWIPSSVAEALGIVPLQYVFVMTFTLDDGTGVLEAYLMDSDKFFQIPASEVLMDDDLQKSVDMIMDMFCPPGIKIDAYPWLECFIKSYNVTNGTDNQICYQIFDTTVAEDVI
Sequence (Q96AP0 3-248 D62A/G63A/T64A/H65A, chain 2 of 2): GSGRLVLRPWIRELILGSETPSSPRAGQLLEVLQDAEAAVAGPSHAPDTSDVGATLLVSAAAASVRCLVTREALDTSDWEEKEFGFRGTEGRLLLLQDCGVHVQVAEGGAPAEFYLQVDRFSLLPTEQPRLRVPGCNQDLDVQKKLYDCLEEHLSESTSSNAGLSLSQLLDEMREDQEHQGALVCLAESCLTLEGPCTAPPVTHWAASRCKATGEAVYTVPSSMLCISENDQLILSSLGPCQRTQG
protocol_summary: filter binding
pKd: −log10 of the molar value.
quantity: pKd

1. GGTTAGGGTTAG (ssDNA) [hT12wt, d(GGTTAG)2] :: 7.56
